# System: Target C
# assay.summary: HiBiT protein abundance assay, Target C
# Type: cell-based, human
# test.settings: Homo sapiens, K562, 24 h, Table 13A, modified K562 cells
measured.endpoint: IC50

# example entries with known answers
c1nc2c(-c3cn[nH]c3)ccc(-c3ccc(N4CCC5(CCN5)C4)nn3)c2s1 (stereo not drawn)
> 10000 nM
CCc1n[nH]c2c(-c3ccc(N(C)[C@@H]4C[C@H]5CC[C@@H](C4)N5)nn3)ccc(-c3cnn(C)n3)c12
> 10000 nM
CN(c1ccc(-c2ccc(-c3cn[nH]c3)c3cn[nH]c23)nn1)[C@@H]1C[C@H]2CCC[C@@H](C1)N2
< 100 nM
c1nc2c(-c3cn[nH]c3)ccc(-c3cnc(N4CCN5CCCCC5C4)nn3)c2s1 (stereo not drawn)
1000 to 10000 nM
Fc1cc(-c2ccc(O[C@@H]3C[C@H]4CC[C@@H](C3)N4)nn2)c2sncc2c1-c1cn[nH]c1
< 100 nM
Cn1cc(-c2ccc(-c3ccc(OC4CC(C)(C)NC(C)(C)C4)nn3)c3[nH]ncc23)cn1
1000 to 10000 nM
CC1(C)CC(Nc2ccc(-c3ccc(-c4cn[nH]c4)c4ncsc34)nn2)CC(C)(C)N1
< 100 nM
CC(C)(C)C1CN(c2ncc(-c3ccc(-c4cn[nH]c4)c4ncsc34)nn2)CCN1 (stereo not drawn)
100 to 1000 nM
CN(c1ccc(-c2ccc(-c3cn[nH]c3)c3ncsc23)nn1)C1CC(C)(C)NC(C)(C)C1
100 to 1000 nM
CC1(C)CC(Oc2ccc(-c3ccc(-n4cccn4)c4cn[nH]c34)nn2)CC(C)(C)N1
100 to 1000 nM

Record summary for Cc1[nH]ncc1-c1ccc(-c2ccc(N(C)C3CC(C)(C)NC(C)(C)C3)nn2)c2ncsc12 : reported IC50 = 1000 to 10000 nM

Record summary for CN(c1ccc(-c2ccc(-c3cn[nH]c3)c3cn[nH]c23)nn1)C1CCNCC1 : reported IC50 = 1000 to 10000 nM

Record summary for c1nc2c(-c3cn[nH]c3)ccc(-c3cnc(N4CCN5CCCC5C4)nn3)c2s1 (stereo not drawn) : reported IC50 = 1000 to 10000 nM

Record summary for c1cnn(-c2ccc(-c3cnc(N4CCNC(C5CC5)C4)nn3)c3cn[nH]c23)c1 (stereo not drawn) : reported IC50 = 100 to 1000 nM

Record summary for c1cnn(-c2ccc(-c3ccc(O[C@@H]4C[C@H]5CC[C@@H](C4)N5)nn3)c3[nH]ncc23)c1 : reported IC50 = < 100 nM

###

# System: Target C
# assay.summary: Splicing RT-qPCR panel, Target C canonical junction (CJ) mRNA
# Assay type: cell-based, human
# test.settings: Homo sapiens, RT-qPCR panel, canonical junction mRNA; compound concentration having 50% response in CJ decrease; read-out: Target C IC50 (decrease in CJ mRNA levels)
pIC50: −log10 of the molar value.
measured.endpoint: pIC50

c1n[nH]cc1-c1ccc(-c2ccc(NC3CNC3)nn2)c2[nH]ncc12
< 5.00
Fc1cc(-c2ccc(N[C@@H]3C[C@H]4CC[C@@H](C3)N4)nn2)c2scnc2c1-c1cn[nH]c1
> 7.00
Fc1cc(-c2ccc(OC3CC4CC(F)(F)C(C3)N4)nn2)c2[nH]ncc2c1-c1cn[nH]c1 (stereo not shown)
6.00 to 7.00
Cc1ncc(-c2ccc(-c3ccc(O[C@@H]4C[C@H]5CC[C@@H](C4)N5)nn3)c3scnc23)s1
6.00 to 7.00
CC1(C)CC(N(c2ccc(-c3ccc(-c4cn[nH]c4)c4ncsc34)nn2)C2CC2)CC(C)(C)N1
5.00 to 6.00

Record summary for C[C@@H]1C[C@H](N(C)c2ccc(-c3ccc(-n4cccn4)c4nn[nH]c34)nn2)CCN1 : reported pIC50 = 5.00 to 6.00

Record summary for [2H]C([2H])([2H])N(c1ccc(-c2ccc(-c3cn[nH]c3)c3cn[nH]c23)nn1)C1CCNCC1 : reported pIC50 = < 5.00

###

# IC50 listing for each entry below
# Tested on: HTT
# assay.summary: Splicing RT-qPCR assay, HTT mRNA canonical junction (CJ) and alternative junction (AJ)
# Assay type: cell-based, human
# test.settings: Homo sapiens, RT-qPCR panel, canonical junction mRNA; compound concentration having 50% response in CJ decrease; read-out: HTT IC50 (decrease in CJ mRNA levels)

c1nc2c(-c3cn[nH]c3)ccc(-c3ccc(S[C@@H]4C[C@H]5CC[C@@H](C4)N5)nn3)c2s1
> 10 µM
c1n[nH]cc1-c1ccc(-c2ccc(NC3CCNCC3)nn2)c2[nH]ncc12
> 10 µM
CNCC1CCN(c2ncc(-c3ccc(-c4cn[nH]c4)c4ncsc34)nn2)C1 (centres unmarked)
1 to 10 µM
CCn1ncc(-c2ccc(-c3ccc(N(C)[C@@H]4C[C@H]5CC[C@@H](C4)N5)nn3)c3[nH]ncc23)n1
0.1 to 1 µM
CN1CCCC2(CCN2c2ccc(-c3ccc(-c4cn[nH]c4)c4ncsc34)nn2)C1 (centres unmarked)
> 10 µM
c1cnn(-c2ccc(-c3ccc(N4CCNC(C5CC5)C4)nn3)c3cn[nH]c23)c1 (centres unmarked)
0.1 to 1 µM
c1n[nH]cc1-c1ccc(-c2ccc(NC3CNC3)nn2)c2[nH]ncc12
> 10 µM

Continue with the next molecule.
# lookup: CCN(c1ccc(C2=CC=C(c3cn[nH]c3)C3N=CSC23)nn1)[C@@H]1C[C@H]2CC[C@@H](C1)N2 (some centres unmarked) on HTT, IC50 = 0.1 to 1 µM

###

# pIC50 listing for each entry below
# System: Target C
# assay.summary: HiBiT protein abundance assay, Target C
# Type: cell-based, human
# test.settings: Homo sapiens, K562, 24 h, Table 13A, modified K562 cells
pIC50: −log10 of the molar value.

c1nc2c(-c3cn[nH]c3)ccc(-c3ccc(NC4CNC4)nn3)c2s1 [Compound 196]
< 5.00
CN(c1ccc(-c2ccc(-c3cn[nH]c3)c3ncsc23)nn1)[C@H]1C[C@H]2COC[C@@H](C1)N2 [Compound 355]
5.00 to 6.00
c1nc2c(-c3cn[nH]c3)ccc(-c3ccc(O[C@@H]4C[C@H]5CCC[C@@H](C4)N5)nn3)c2s1 [Compound 209]
> 7.00
c1n[nH]cc1-c1ccc(-c2ccc(N[C@@H]3C[C@H]4CCC[C@@H](C3)N4)nn2)c2[nH]ncc12 [Compound 294]
6.00 to 7.00
C[C@@H]1C[C@H](N(C)c2ccc(-c3ccc(-c4cn[nH]c4)c4nn[nH]c34)nn2)CCN1 [Compound 115]
< 5.00

Record summary for CN1CCC12CCN(c1ccc(-c3ccc(-c4cn[nH]c4)c4ncsc34)nn1)C2 (stereo not shown) [Compound 287] : reported pIC50 = 5.00 to 6.00

Record summary for CN(c1ccc(-c2ccc(-c3cn[nH]c3)c3cn[nH]c23)nn1)C1CC(C)(C)NC(C)(C)C1 [Compound 137] : reported pIC50 = 6.00 to 7.00

###

# pIC50 listing for each entry below
# Tested on: HTT
# assay.summary: Splicing RT-qPCR assay, HTT mRNA canonical junction (CJ) and alternative junction (AJ)
# Type: cell-based, human
# test.settings: Homo sapiens, RT-qPCR panel, canonical junction mRNA; compound concentration having 50% response in CJ decrease; read-out: HTT IC50 (decrease in CJ mRNA levels)
pIC50: −log10 of the molar value.

Cn1cc(-c2ccc(-c3ccc(N[C@@H]4C[C@H]5CC[C@@H](C4)N5)nn3)c3[nH]ncc23)nn1
5.00 to 6.00

# lookup: c1nc2c(-c3cn[nH]c3)ccc(-c3cnc(N4CCN5CCCC5C4)nn3)c2s1 (stereo not shown) on HTT, pIC50 = 5.00 to 6.00

# lookup: Fc1ccn(-c2ccc(-c3ccc(O[C@@H]4C[C@H]5CC[C@@H](C4)N5)nn3)c3scnc23)n1 on HTT, pIC50 = > 7.00

# lookup: COc1cc(-c2ccc(-c3ccc(N(C)C4CC(C)(C)NC(C)(C)C4)nn3)c3scnc23)cnn1 on HTT, pIC50 = > 7.00

###

# Tested on: HTT
# assay.summary: Splicing RT-qPCR assay, HTT mRNA canonical junction (CJ) and alternative junction (AJ)
# Assay type: cell-based, human
# test.settings: Homo sapiens, RT-qPCR panel, canonical junction mRNA; compound concentration having 50% response in CJ decrease; read-out: HTT IC50 (decrease in CJ mRNA levels)
pIC50: −log10 of the molar value.
measured.endpoint: pIC50

# example entries with known answers
CN(c1ccc(-c2cc(F)c(-c3cn[nH]c3)c3cn[nH]c23)nn1)[C@@H]1C[C@H]2CC[C@@H](C1)N2 [Compound 351]
> 7.00
c1nc2c(-c3cn[nH]c3)ccc(-c3ccc(N4CCC5(CC4)CNC5)nn3)c2s1 [Compound 188]
< 5.00
c1cnn(-c2ccc(-c3cnc(N[C@@H]4C[C@H]5CCC[C@@H](C4)N5)nn3)c3cn[nH]c23)c1 [Compound 561]
> 7.00
CN(c1cnc(-c2cc(F)c(-c3cn[nH]c3)c3cn[nH]c23)nn1)[C@@H]1C[C@H]2CC[C@@H](C1)N2 [Compound 149]
> 7.00
c1nc2c(-c3cn[nH]c3)ccc(-c3ccc(N[C@@H]4C[C@H]5COC[C@@H](C4)N5)nn3)c2s1 [Compound 354]
> 7.00

# lookup: c1nc2c(-c3cn[nH]c3)ccc(-c3ccc(N4CC5(CCCNC5)C4)nn3)c2s1 [Compound 187] on HTT, pIC50 = < 5.00

# lookup: Fc1cc(-c2ccc(O[C@@H]3C[C@H]4CC[C@@H](C3)N4)nn2)c2sncc2c1-c1cn[nH]c1 [Compound 327] on HTT, pIC50 = > 7.00
